ASSAYED_SYSTEM: Torsin-1A-interacting protein 2 (Homo sapiens)
ASSAY_INFO: small molecules binding lysate-expressed LULL1 – cell lysate, human LULL1 lysate, 635/667 nm fluorescence, primary screen (AID 1092);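 also: probe is lysate of COS7 cells overexpressing human LULL1; score merges per-feature 667 nm fluorescence with signal-to-noise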
TEST_PARAMETERS: small-molecule microarray, hLULL1 lysate binding, 635 nm fluorescence; higher = more signal
ENDPOINT_NAME: composite z-score

Here are 8 compounds together with their reported answers.
* CCCC[C@@H]1C[C@H]1[C@@H](NC(=O)c1ccco1)c1ccccc1 | -0.832
* O=C(NCC(F)(F)F)[C@@H]1c2ccccc2C(=O)N(Cc2ccccc2)[C@H]1c1ccc(CO)cc1 | 2.35
* C[C@]1(C(=O)NCC(F)(F)F)c2ccccc2C(=O)N(Cc2cc(F)cc(C(F)(F)F)c2)[C@H]1c1ccc(CO)cc1 | 2.67
* O=C1C2C=CC(C(O)CCc3ccccc3)N(Nc3ccccc3)C2C(=O)N1c1ccccc1 (stereo unspecified) | 3.4
* CC1CC/C=C\[C@H]2OC34C=CCN(c5ccc6ccccc6c5)C(=O)[C@H]3N(CCCCCO)C(=O)[C@@H]4C2C(=O)O1 (stereo partly specified) | -1.87
* Cc1ccc(N2C(=O)c3ccccc3[C@](C)(C(=O)NCCN3CCOCC3)[C@@H]2c2ccc(CO)cc2)nc1 | 1.04
* COC(=O)c1c(CC[C@@H](CO)NC(=O)Nc2ncn[nH]2)oc(C(=O)Cc2ccccc2)c1C(=O)OC | 2.99
* [N-]=[N+]=NCc1ccccc1C[C@]1(C(=O)NCC(O)CO)COC(c2ccc(OCCCO)cc2)=N1 (stereo partly specified) | 2.54

Incoming: Read the entry O=C1OCC=C[C@H]2OC34C=CCN(Cc5ccccc5)C(=O)[C@H]3N(CCCO)C(=O)[C@@H]4[C@@H]12 (stereo partly specified) and write its reported composite z-score.
Outgoing: 3.71

Incoming: Identify measured composite z-score corresponding to CCOC(=O)C=Cc1cccc(OC)c1O
Outgoing: 0.0496

Incoming: Dear colleague, please send me the reported composite z-score for COc1ccc([Si](C)(C)[C@@H]2[C@@H](CCn3cc([C@H](O)c4ccccc4)nn3)O[C@]3(C(=O)N(C)c4ccccc43)[C@H]2C)cc1 when you can.
Outgoing: 1.96

Incoming: In one line, give reported composite z-score of the entry O=C1O[C@H](c2ccccc2)[C@H](c2ccccc2)N2[C@H]1[C@@H](C(=O)NC[C@H](O)c1ccccc1)[C@]1(C(=O)Nc3ccc(C#CC4(O)CCCCCC4)cc31)[C@H]2c1ccccc1OCCO .
Outgoing: 2.84

---

ASSAY_INFO: probe aNog binding to arrayed compounds – biochemical, biotinylated probe, 635/667 nm fluorescence, primary screen (AID 1115);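 also: probe is biotinylated aNog protein used at 0.15 µg/mL for 1 h at 4 C; z-score combines 667 nm fluorescence of each spot with its signal to noise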
TEST_PARAMETERS: small-molecule microarray, higher = more signal
ENDPOINT_NAME: composite z-score
Write no unit; give the number alone.

• C=CCOC(=O)[C@@H]1[C@H]2C(=O)O[C@H](c3ccccc3)[C@H](c3ccccc3)N2[C@H](c2ccc(OCCOC(=O)[C@H]3C[C@H]4C(=O)N[C@@H](Cc5ccccc5)C(=O)N4[C@H]3c3ccc(O)cc3)cc2)[C@@]12C(=O)Nc1ccc(I)cc12 = 0.116

Incoming: In one line, give reported composite z-score of the entry CC(C)[C@H]1COC(=O)N1C(=O)[C@H]1[C@@H](c2ccccc2)N(c2ccccc2)O[C@@H]1C .
Outgoing: 0.0373

Incoming: Indicate the recorded composite z-score value for this molecule: C/C=C/[C@H](CCn1cc([C@H](O)c2ccccc2)nn1)[Si](C)(C)c1ccc(OC)cc1
Outgoing: -0.272

---

ASSAYED_SYSTEM: Neurogenic locus notch homolog protein 2 (Homo sapiens) (UniProt Q04721)
Sequence (Q04721 whole entry, looked up): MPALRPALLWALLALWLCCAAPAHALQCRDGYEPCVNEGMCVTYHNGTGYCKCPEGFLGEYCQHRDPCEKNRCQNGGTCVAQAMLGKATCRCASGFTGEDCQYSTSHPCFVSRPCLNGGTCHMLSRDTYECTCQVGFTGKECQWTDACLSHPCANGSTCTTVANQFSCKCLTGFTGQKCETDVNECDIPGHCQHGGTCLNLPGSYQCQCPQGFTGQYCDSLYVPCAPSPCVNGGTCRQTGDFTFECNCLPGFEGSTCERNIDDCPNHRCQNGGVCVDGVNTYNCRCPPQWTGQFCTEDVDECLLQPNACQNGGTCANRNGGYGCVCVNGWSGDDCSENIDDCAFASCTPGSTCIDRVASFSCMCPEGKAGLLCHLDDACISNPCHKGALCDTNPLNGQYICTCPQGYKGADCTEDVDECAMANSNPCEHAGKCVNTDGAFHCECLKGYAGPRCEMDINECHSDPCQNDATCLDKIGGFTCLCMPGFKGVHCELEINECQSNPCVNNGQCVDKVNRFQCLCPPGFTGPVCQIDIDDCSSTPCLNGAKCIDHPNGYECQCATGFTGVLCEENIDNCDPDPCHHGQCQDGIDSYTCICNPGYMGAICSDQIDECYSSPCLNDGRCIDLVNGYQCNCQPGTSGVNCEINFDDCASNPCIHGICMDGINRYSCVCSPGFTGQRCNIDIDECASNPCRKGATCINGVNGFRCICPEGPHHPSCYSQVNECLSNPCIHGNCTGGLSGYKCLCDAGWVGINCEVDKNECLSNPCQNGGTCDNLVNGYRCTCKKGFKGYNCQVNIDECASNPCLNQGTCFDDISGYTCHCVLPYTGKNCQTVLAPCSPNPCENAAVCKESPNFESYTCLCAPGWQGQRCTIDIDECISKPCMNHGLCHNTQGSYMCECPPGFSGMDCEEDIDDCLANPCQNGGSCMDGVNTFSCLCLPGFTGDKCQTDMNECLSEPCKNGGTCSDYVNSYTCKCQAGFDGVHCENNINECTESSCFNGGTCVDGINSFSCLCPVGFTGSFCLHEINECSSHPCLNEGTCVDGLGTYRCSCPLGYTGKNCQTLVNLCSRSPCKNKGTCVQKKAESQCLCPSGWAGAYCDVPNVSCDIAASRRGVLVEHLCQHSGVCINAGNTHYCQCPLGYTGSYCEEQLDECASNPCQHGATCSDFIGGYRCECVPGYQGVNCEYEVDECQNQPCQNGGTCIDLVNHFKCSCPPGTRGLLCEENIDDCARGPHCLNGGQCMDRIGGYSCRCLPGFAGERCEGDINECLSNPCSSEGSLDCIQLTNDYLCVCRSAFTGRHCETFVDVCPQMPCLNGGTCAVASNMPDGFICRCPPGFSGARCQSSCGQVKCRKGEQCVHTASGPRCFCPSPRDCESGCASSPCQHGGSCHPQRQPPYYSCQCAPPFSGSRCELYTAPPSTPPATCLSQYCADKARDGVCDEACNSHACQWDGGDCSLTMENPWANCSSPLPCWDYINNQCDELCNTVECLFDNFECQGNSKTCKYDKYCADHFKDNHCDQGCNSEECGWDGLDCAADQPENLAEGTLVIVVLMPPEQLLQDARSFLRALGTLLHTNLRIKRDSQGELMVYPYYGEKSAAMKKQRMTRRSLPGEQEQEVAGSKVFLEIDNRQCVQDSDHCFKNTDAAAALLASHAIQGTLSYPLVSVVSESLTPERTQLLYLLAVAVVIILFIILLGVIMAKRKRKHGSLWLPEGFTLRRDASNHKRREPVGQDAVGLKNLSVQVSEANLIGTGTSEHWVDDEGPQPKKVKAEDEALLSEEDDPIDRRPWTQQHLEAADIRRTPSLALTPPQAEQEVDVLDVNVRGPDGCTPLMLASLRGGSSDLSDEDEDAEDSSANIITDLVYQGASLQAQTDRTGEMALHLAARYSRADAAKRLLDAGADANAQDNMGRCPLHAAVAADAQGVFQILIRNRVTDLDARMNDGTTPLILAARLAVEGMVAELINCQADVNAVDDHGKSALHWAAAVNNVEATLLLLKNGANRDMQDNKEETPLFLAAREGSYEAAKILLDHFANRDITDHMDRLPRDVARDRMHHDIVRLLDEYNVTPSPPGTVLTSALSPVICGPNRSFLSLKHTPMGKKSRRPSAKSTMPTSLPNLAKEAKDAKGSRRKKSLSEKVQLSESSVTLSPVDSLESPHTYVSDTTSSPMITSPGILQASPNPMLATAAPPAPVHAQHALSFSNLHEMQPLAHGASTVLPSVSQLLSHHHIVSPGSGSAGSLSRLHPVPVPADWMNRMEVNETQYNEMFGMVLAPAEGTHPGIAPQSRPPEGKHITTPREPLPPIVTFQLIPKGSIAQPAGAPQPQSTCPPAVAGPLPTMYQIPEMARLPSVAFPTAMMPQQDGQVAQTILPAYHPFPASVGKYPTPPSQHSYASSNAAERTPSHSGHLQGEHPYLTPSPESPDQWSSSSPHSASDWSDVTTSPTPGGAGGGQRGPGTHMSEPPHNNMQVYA
ASSAY_INFO: small molecules binding Notch2 protein – biochemical, small-molecule microarray, 635 nm fluorescence, stem cell growth factors, primary screen (AID 1073)
TEST_PARAMETERS: higher = more signal
The threshold is inclusive: composite z-score of exactly -0.1 counts as label 1; values below receive label 0.

// known answers, use as guide
* COc1ccc([Si](C)(C)[C@H]2[C@H](CCO)O[C@@]3(C(=O)N(Cc4cccc(N5C(=O)c6cccc7cccc5c67)c4)c4ccccc43)[C@@H]2C)cc1 | label 0
* CCOC(=O)C1=CC[C@@H](c2cccc(Cl)c2)N(S(=O)(=O)c2ccc(C)cc2)[C@H]1c1ccc(C#N)cc1 | label 1
* CCCNC(=O)[C@@]1(C)c2ccccc2C(=O)N(Cc2cc(F)cc(C(F)(F)F)c2)[C@H]1c1ccc(CO)cc1 | label 0
* COCCOC(=O)N1C(=O)[C@@]2(c3cc(C#CC4(O)CCCCCC4)ccc31)[C@H](c1ccc(O)cc1)N1[C@H](c3ccccc3)[C@H](c3ccccc3)OC(=O)[C@H]1[C@@H]2C(=O)N1CCc2cc(OC)c(OC)cc2C1 | label 0
* CN1C(=O)C2C=CC(C(O)c3ccccc3)N(NC(=O)OC(C)(C)C)C2C1=O (stereo unspecified) | label 1

Let's switch to this compound now.
Incoming: Determine whether this compound has composite z-score no lower than -0.1: COc1ccc(C#Cc2ccc3c(c2)[C@]2(C(=O)N3)[C@H](C(=O)N3CCN(c4ncccn4)CC3)[C@H]3C(=O)O[C@H](c4ccccc4)[C@H](c4ccccc4)N3[C@@H]2c2ccc(O)cc2)cc1
Outgoing: label 1

---

System: Lefty1
ASSAY_INFO: Lefty1 protein binding to printed compounds – biochemical, small-molecule microarray, 635/667 nm fluorescence, primary screen (AID 1139)
TEST_PARAMETERS: fluorescence 635/667, higher = more signal
ENDPOINT_NAME: composite z-score
The response must contain the number and no unit.

In the examples that follow, each entry is paired with its recorded composite z-score.
* C[n+]1ccc2ccc(O)cc2c1 | 1.54
* C=CC[C@]1(C(=O)NCCN2CCOCC2)N=C(c2ccc(OCCCO)cc2)O[C@H]1c1ccccc1N=[N+]=[N-] | -0.367
* CCCC[C@H]1C[C@@H]1[C@@H]1N(P(=O)(c2ccccc2)c2ccccc2)[C@](CO)(c2ccccc2)CC12CC2 | -0.519
* CCCNC(=O)[C@@]1(C)c2ccccc2C(=O)N(Cc2ccc(OC(F)(F)F)cc2)[C@H]1c1ccc(CO)cc1 | -0.526
* C=CCC(OC(C)=O)[C@@H]1[C@@H](N(Cc2ccc(-c3ccccc3)cc2)C(=O)c2ccc(C)cc2)c2cc(OCCCO)ccc2N1C(=O)Cc1ccc(OC)cc1 (stereo partly drawn) | 0.0835

Incoming: Specify measured composite z-score for COC(=O)[C@@]1(Cc2ccc(F)cc2)[C@H]2c3cc(C(=O)N4CCCC4)n(CCc4ccc(OC)c(Br)c4)c3C[C@H]2CN1C(=O)c1ccccc1 .
Outgoing: 0.265

Incoming: // Input: [N-]=[N+]=NCc1ccccc1C[C@]1(C(=O)NCC(O)CO)COC(c2ccc(OCCCO)cc2)=N1 (stereo partly drawn) . Output its composite z-score only.
Outgoing: -0.683

Incoming: Answer with the recorded composite z-score of CO[C@H]1O[C@H](CO)[C@@H](OC(=O)Nc2cccc(F)c2)[C@H](OC(=O)Nc2ccccc2-c2ccccc2)[C@@H]1OC(=O)Nc1ccccc1-c1ccccc1 only.
Outgoing: 0.102

---

ASSAY_INFO: probe aDKK1 binding to arrayed compounds – biochemical, biotinylated probe, 635/667 nm fluorescence, primary screen (AID 1099);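 also: score merges 667nm spot fluorescence with signal to noise across triplicate slides; reference of the scale not given here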
TEST_PARAMETERS: small-molecule microarray, higher = more signal
Rule: composite z-score under 0.5 gives not satisfied, otherwise satisfied.

• [N-]=[N+]=Nc1ccccc1[C@@H]1OC(c2ccc(OCCCO)cc2)=N[C@]1(CCS(=O)(=O)c1ccccc1)C(=O)N1CCCCC1 = satisfied
• COC(=O)[C@@]1(Cc2ccc(OC)cc2)[C@H]2c3cc(C(=O)N(C)C)n(Cc4ccc(OC)c(OC)c4)c3C[C@H]2CN1C(=O)c1ccccc1 = not satisfied
• C=C(COC)C(=O)CC[C@H](OC(=O)c1cccnc1)c1ccccc1OCCO = not satisfied

Incoming: Exam item: decide whether the reported composite z-score for [N-]=[N+]=NCc1ccccc1[C@H]1OC(c2ccc(OCCCO)cc2)=N[C@@]1(Cc1ccccc1)C(=O)O is at least 0.5.
Outgoing: not satisfied

Incoming: Entry O=C1O[C@@H](c2ccccc2)[C@@H](c2ccccc2)N2[C@@H](c3ccccc3OCCO)[C@]3(C(=O)Nc4ccc(C#CC5(O)CCCCCC5)cc43)[C@@H](C(=O)NC[C@H](O)c3ccccc3)[C@H]12 : is its composite z-score no less than 0.5?
Outgoing: satisfied

Incoming: Please check the record Oc1ccc2cc[n+](Cc3cccc(OC(F)(F)F)c3)cc2c1 and state if its composite z-score is at or above 0.5.
Outgoing: not satisfied

Incoming: Evaluate CCOC(=O)C1=C[C@@H](C(C)(C)C)N(S(=O)(=O)c2ccc(C)cc2)[C@H]1c1ccc(Cl)c(Cl)c1 : composite z-score at minimum 0.5?
Outgoing: satisfied

---

ASSAY_INFO: probe aEGFR binding to arrayed compounds – biochemical, biotinylated probe, 635/667 nm fluorescence, primary screen (AID 1097);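 also: probe is a biotinylated anti-EGFR antibody binding compounds printed on slides; score combines fluorescence near 667 nm and signal to noise of each spot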
TEST_PARAMETERS: small-molecule microarray, higher = more signal
ENDPOINT_NAME: composite z-score
Lab note: jot the number down without any unit.

Incoming: Report composite z-score, nothing else, for this compound: CCOC(=O)C1=C[C@@H](C(C)(C)C)N(S(=O)(=O)c2ccc(C)cc2)[C@H]1c1ccc(Cl)c(Cl)c1
Outgoing: 0.239
